Target: HLA-DRB1*01:01 (Homo sapiens, UniProt P01903+P01911, A100R/D57E/F55L/F60I/F76Y/I96L/L162R/M171V/P40L/Q125E/R42F/V115G/Y59C)
Construct: EBV transformed homozygous cell lines were used as sources of MHC molecules; endogenous in cells; host or cells: EBV transformed homozygous cell lines
Assay: HLA class II peptide binding, inhibition of radiolabeled peptide binding to purified MHC
Conditions: citrullinated 15-mer (X); purified MHC, inhibition of radiolabeled peptide binding; dash = IC50 >40,000 nM; read-out: DRB1*01:01 binding capacity, Cit peptide (IC50 nM)
Square brackets hold non-standard residues; d marks the D form. Peptide text beside a SMILES is read from it. Cit = NC(=O)NCCC[C@H](N)C(=O)O
Consider the following molecules and their measured IC50 readings.
Please give a number only; it is taken to be in nM.

CC(C)C[C@H](NC(=O)[C@H](C)NC(=O)[C@H](C)NC(=O)[C@@H](N)[C@@H](C)O)C(=O)N[C@@H](CCCNC(=N)N)C(=O)N[C@@H](CC(=O)O)C(=O)N[C@H](C(=O)N[C@@H](CCCNC(N)=O)C(=O)N[C@@H](CCC(N)=O)C(=O)N[C@@H](CCC(N)=O)C(=O)N[C@@H](Cc1ccc(O)cc1)C(=O)N[C@@H](CCC(=O)O)C(=O)N[C@@H](CO)C(=O)N[C@H](C(=O)N[C@@H](C)C(=O)O)C(C)C)C(C)C [TAALRDVXQQYESVA] (H-TAALRDV[Cit]QQYESVA-OH); 896
CC(C)C[C@H](NC(=O)[C@H](C)NC(=O)[C@H](CC(=O)O)NC(=O)[C@H](CC(N)=O)NC(=O)[C@H](CC(N)=O)NC(=O)[C@H](CCCNC(=N)N)NC(=O)[C@H](CC(N)=O)NC(=O)[C@H](C)NC(=O)[C@H](C)NC(=O)[C@H](CCC(=O)O)NC(=O)[C@H](CO)NC(=O)[C@H](CC(C)C)NC(=O)[C@H](CC(=O)O)NC(=O)[C@H](C)N)C(=O)N[C@@H](CCCNC(N)=O)C(=O)O [ADLSEAANRNNDALX] (H-ADLSEAANRNNDAL[Cit]-OH); 6180

// query Could you tell me which IC50 is on file for CC(C)C[C@H](NC(=O)[C@H](CCCNC(N)=O)NC(=O)[C@H](CO)NC(=O)[C@H](CCCCN)NC(=O)CNC(=O)[C@H](CCC(N)=O)NC(=O)CNC(=O)[C@H](CCCCN)NC(=O)[C@H](CC(C)C)NC(=O)[C@H](CCC(N)=O)NC(=O)[C@@H](N)CCC(=O)O)C(=O)NCC(=O)N[C@@H](CC(=O)O)C(=O)N[C@@H](CC(C)C)C(=O)N[C@@H](Cc1ccc(O)cc1)C(=O)O ?
// result 5380

From: paper PMC5421785
